target: 5-hydroxytryptamine receptor 2B (Homo sapiens, UniProt P41595); format: functional, cell-based; note: assay procedure not described here
Sequence (P41595 whole entry): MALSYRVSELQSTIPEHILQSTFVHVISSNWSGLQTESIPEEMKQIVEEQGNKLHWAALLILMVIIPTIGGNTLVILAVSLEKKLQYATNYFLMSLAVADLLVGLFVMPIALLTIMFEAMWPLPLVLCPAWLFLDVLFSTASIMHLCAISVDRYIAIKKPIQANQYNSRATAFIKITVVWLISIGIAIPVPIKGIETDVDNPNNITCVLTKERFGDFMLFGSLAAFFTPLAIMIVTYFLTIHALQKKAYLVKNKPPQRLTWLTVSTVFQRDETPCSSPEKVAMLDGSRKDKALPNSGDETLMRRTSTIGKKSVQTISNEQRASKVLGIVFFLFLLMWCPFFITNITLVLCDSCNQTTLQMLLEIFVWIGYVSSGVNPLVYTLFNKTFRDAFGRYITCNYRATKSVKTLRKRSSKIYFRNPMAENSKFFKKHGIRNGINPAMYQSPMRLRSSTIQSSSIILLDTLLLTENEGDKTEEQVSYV
I'd appreciate it if you could supply AC50 values for the items below.

CCN1C(=O)NC(c2ccccc2)C1=O (centres undefined)    > 30 µM
O=C(C[S+]([O-])Cc1ccco1)NC/C=C\COc1cc(CN2CCCCC2)ccn1 (centres undefined)    > 10 µM
CN(C)CCN(Cc1ccccc1)c1ccccn1    > 10 µM
O=C(O)CCCC[C@@H]1SC[C@@H]2NC(=O)N[C@@H]21    > 10 µM
N=C(N)NC(=O)c1nc(Cl)c(N)nc1N [AMILORIDE]    > 30 µM

I have 7 compounds here; please give me AC50 for each one.
1. C[C@]12CCC(=O)C=C1C=C[C@@H]1[C@@H]2CC[C@@]2(C)[C@H]1CC[C@@]21CCC(=O)O1
2. CN1C(=O)CN=C(c2ccccc2F)c2cc([N+](=O)[O-])ccc21
3. CCOC(=O)Nc1ccc(NCc2ccc(F)cc2)nc1N
4. CCN(CC)CCn1c(=O)c(Cc2ccc(OC)cc2)nc2ccccc21
5. Nc1nnc(-c2cccc(Cl)c2Cl)c(N)n1
6. CCCCC[C@H](O)CC[C@@H]1[C@H]2Cc3cccc(OCC(=O)O)c3C[C@H]2C[C@H]1O
7. Nc1c2c(nc3ccccc13)CCCC2O (centres undefined)

["> 30 µM", "> 10 µM", "> 30 µM", "> 30 µM", "> 10 µM", "> 30 µM", "> 30 µM"]

* * *

I'd appreciate it if you could supply AC50 values for the items below.
biological target: Cannabinoid receptor 1 (Homo sapiens, UniProt P21554); type: functional, cell-based; note: assay procedure not described here
Sequence (P21554 whole entry): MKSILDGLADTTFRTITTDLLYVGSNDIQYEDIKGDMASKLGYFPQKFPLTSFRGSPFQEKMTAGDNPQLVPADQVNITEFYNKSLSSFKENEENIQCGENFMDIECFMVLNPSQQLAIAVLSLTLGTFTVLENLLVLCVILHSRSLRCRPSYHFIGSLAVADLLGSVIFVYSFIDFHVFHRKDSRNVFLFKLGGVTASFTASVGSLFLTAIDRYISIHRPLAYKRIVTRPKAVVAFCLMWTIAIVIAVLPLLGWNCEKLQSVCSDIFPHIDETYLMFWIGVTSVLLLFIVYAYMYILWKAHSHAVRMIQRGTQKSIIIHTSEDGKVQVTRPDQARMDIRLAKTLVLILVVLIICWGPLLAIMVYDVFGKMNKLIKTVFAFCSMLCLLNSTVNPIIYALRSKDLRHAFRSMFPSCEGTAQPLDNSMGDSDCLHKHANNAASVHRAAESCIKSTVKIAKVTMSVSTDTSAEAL

Solved entries (count: 5):
CN(C)CCc1c[nH]c2ccc(CS(=O)(=O)N3CCCC3)cc12 [ALMOTRIPTAN]    > 30 µM
Cn1cnc2c(F)c(Nc3ccc(Br)cc3F)c(C(=O)NOCCO)cc21 [BINIMETINIB]    > 30 µM
CN1C2CCCC1CC(NC(=O)c1nn(C)c3ccccc13)C2 (stereo not given) [GRANISETRON]    > 30 µM
O=C(O)COC(=O)Cc1ccccc1Nc1c(Cl)cccc1Cl [ACECLOFENAC]    > 30 µM
C[C@]12CCC(=O)C=C1CC[C@H]1[C@@H]3CC[C@](O)(C(=O)CO)[C@@]3(C)C[C@H](O)[C@@]12F [FLUDROCORTISONE]    > 30 µM

I have 4 compounds here; please give me AC50 for each one.
1. c1cnc2cc3c(cc2n1)[C@@H]1CNC[C@H]3C1 [VARENICLINE]
2. Nc1nnc(-c2cccc(Cl)c2Cl)c(N)n1 [LAMOTRIGINE]
3. CC(=O)Oc1cccc2c1C(=O)c1c(OC(C)=O)cc(C(=O)O)cc1C2=O [DIACEREIN]
4. CC(=O)NC[C@H]1CN(c2ccc(N3CCOCC3)c(F)c2)C(=O)O1 [LINEZOLID]

1: > 30 µM; 2: > 30 µM; 3: > 30 µM; 4: > 30 µM

* * *

Quick record of AC50 values for Sodium-dependent dopamine transporter (Homo sapiens, UniProt Q01959).

Solved entries (count: 2):
OCC(CO)N[C@H]1C[C@](O)(CO)[C@@H](O)[C@H](O)[C@H]1O    > 30 µM
NCC1(CC(=O)O)CCCCC1    > 30 µM

I have 3 compounds here; please give me AC50 for each one.
1. COc1ccc2c3c1O[C@H]1C(=O)CC[C@H]4[C@@H](C2)N(C)CC[C@]314 [HYDROCODONE]
2. CCN(CC)Cc1nccn1-c1ccc([N+](=O)[O-])cc1C(=O)c1ccccc1Cl
3. CN1C(=O)CN=C(c2ccccc2F)c2cc([N+](=O)[O-])ccc21

> 10 µM
> 30 µM
> 10 µM

I have 4 compounds here; please give me AC50 for each one.
1. CCN(CC)CCCN(c1ccccc1)C1Cc2ccccc2C1
2. COc1ccc(-c2cc(=S)ss2)cc1
3. N[C@@H](Cc1cc(I)c(Oc2cc(I)c(O)c(I)c2)c(I)c1)C(=O)O
4. CCC(=O)O[C@H](CC(=O)O)C[N+](C)(C)C [LEVOCARNITINE PROPIONATE]

1. 11.6 µM
2. 10 µM
3. > 30 µM
4. > 30 µM
